B1: library; a variant is named by its letters at N, in order (parent)
chain: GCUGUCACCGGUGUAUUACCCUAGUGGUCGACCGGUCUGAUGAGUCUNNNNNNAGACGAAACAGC

Variants of: B1
TEST NAME: FACS-Seq fitted mean relative fluorescence mCherry/BFP with ligand (log10 relative fluorescence); ligand: hypoxanthine (xanthine aptamer); ligand concentration (+) FACS-Seq: 5 mM; higher = higher reporter protein expression
STUDY CONDITIONS: HEK293T, ligand present: yes
Cut-off 0.4 on FACS-Seq fitted mean (log10), inclusive. At or above means 1; below means 0.

variant_name=GUAGGU group=1

IN: Is it the case that AGGUAC has FACS-Seq fitted mean (log10) reaching or exceeding 0.4?
OUT: 0

IN: Is it the case that GACCCU has FACS-Seq fitted mean (log10) reaching or exceeding 0.4?
OUT: 0

IN: Is it the case that AAUCAU has FACS-Seq fitted mean (log10) reaching or exceeding 0.4?
OUT: 1

IN: Is it the case that GCGUGU has FACS-Seq fitted mean (log10) reaching or exceeding 0.4?
OUT: 1

IN: Is it the case that CCCGGA has FACS-Seq fitted mean (log10) reaching or exceeding 0.4?
OUT: 0

IN: Is it the case that CACGAA has FACS-Seq fitted mean (log10) reaching or exceeding 0.4?
OUT: 0

IN: Is it the case that GGAAGG has FACS-Seq fitted mean (log10) reaching or exceeding 0.4?
OUT: 0

IN: Is it the case that UGUCUA has FACS-Seq fitted mean (log10) reaching or exceeding 0.4?
OUT: 0
